src = PubChem BioAssay (EPA / NIEHS)

targetUnderTest: Bile acid receptor (Homo sapiens) (UniProt Q96RI1)
Sequence (Q96RI1 whole entry, looked up): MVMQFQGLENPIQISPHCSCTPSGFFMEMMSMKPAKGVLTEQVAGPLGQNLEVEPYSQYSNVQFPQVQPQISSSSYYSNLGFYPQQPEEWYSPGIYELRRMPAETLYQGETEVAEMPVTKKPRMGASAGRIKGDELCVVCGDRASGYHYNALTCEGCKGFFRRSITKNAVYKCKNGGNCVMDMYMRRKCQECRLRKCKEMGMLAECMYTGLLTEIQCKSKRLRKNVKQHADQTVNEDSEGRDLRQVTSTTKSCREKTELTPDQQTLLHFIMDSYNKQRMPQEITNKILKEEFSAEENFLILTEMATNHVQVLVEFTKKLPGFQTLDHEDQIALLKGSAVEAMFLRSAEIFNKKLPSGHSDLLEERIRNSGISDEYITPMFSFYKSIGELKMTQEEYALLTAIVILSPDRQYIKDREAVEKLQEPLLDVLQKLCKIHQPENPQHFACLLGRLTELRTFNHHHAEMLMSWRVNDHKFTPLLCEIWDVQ
testDescription: NVS_NR_hFXR_Agonist: NovaScreen (NVS) Nuclear Receptor Binding Assay for human Farnesoid X Receptor Agonism (FXR) (AID 2283347)
Records with an inconclusive call do not appear. Activity calls are given as the source filed them. The calls were made as follows: active = hit-call score of the fitted dose curve at least 0.9, where 1 is the maximum; inconclusive = response in the unintended direction; inactive = score below 0.9.
Labels: active, inactive

c1ccc(C[n+]2cccc3ccccc32)cc1 :: inactive
Cc1nn(C)c(Oc2ccccc2)c1C=NOCc1ccc(C(=O)OC(C)(C)C)cc1 :: inactive
CCCCOC(=O)c1ccc(O)cc1 :: inactive
CCN(Cc1cccnc1)C(=O)c1cccc(Cl)c1[C@]1(C)C(=O)N(Cc2ccc(OC)cc2OC)c2ccc(Cl)cc21 :: active
CCCCOC(=O)C(C)Oc1ccc(Oc2ccc(C(F)(F)F)cn2)cc1 (stereo unspecified) :: inactive
COCC(C)OCC(C)O (stereo unspecified) :: inactive
CCCCOC(=O)[C@@H](C)Oc1ccc(Oc2ccc(C(F)(F)F)cn2)cc1 :: inactive
Cc1c(C)c2c(c(C)c1O)CCC(C)(COc1ccc(CC3SC(=O)NC3=O)cc1)O2 (stereo unspecified) :: inactive
CC(C)OC(=O)C(C)(C)Oc1ccc(C(=O)c2ccc(Cl)cc2)cc1 :: active
CCN(CCC#N)c1ccc(N=Nc2c(Cl)cc([N+](=O)[O-])cc2Cl)cc1 :: inactive
COc1cc(C(C)C)c2c(c1)S(=O)(=O)N(COc1cc(=O)n3cccc(OCCN4CCCCC4)c3n1)C2=O :: inactive

###

Read-out: Interleukin-8 (IL8), CXCL8 (gene 3576)
testDescription: BSK_3C_IL8: BioMAP Diversity Plus: 3C Assay for Interleukin-8 (IL8) Biomarker Activity (AID 2283020)
settings: primary human endothelial cells (HUVEC); actives raise or lower the signal
Active and inactive are the calls of the source. How the source made its calls: active means hit-call score of the fitted dose curve at least 0.9, where 1 is the maximum; inactive means score below 0.9.
Outcome codes: active, inactive

O=[N+]([O-])C=Cc1ccccc1 :: active
CCc1cc(C)cc(CC)c1-c1c(OC(=O)C(C)(C)C)n2n(c1=O)CCOCC2 :: active
CC(C)CCCCCCCOP(=O)(Oc1ccccc1)Oc1ccccc1 :: active
CC(C)(C)C(O)C(Oc1ccc(-c2ccccc2)cc1)n1cncn1 (configuration not stated) :: inactive
O=C1C(Cl)=C(Cl)C(=O)C(Cl)=C1Cl :: active
c1ccc(Nc2ccc3ccccc3c2)cc1 :: active
CC1(C)[C@H](C(=O)O[C@H](C#N)c2cccc(Oc3ccccc3)c2)[C@@H]1C=C(Br)Br :: inactive
O=[N+]([O-])c1ccc(Cl)cc1 :: inactive
CNC(=O)Oc1cc(C)c(SC)c(C)c1 :: inactive
N#CCCCCC#N :: inactive
Clc1ccc(-c2ccccc2)cc1 :: inactive
CC(=O)/C=C/c1ccccc1 :: inactive
CCC(C)c1cc([N+](=O)[O-])cc([N+](=O)[O-])c1OC(=O)C=C(C)C (configuration not stated) :: active
O=[N+]([O-])O :: inactive
O=C(O)CCCc1ccc(N(CCCl)CCCl)cc1 :: inactive
O=c1[nH]c(Cl)c(Cl)cc1Cl :: inactive
COc1ccc(CO)cc1 :: inactive
O=C(CCl)c1ccccc1 :: active
CC(C)COP(=O)(OCC(C)C)OCC(C)C :: inactive
CCCOC(=O)c1ccccc1C(=O)OCCC :: inactive
Oc1cc(Cl)ccc1Cl :: inactive
COC(C)(C)CCC[C@H](C)C/C=C/C(C)=C/C(=O)OC(C)C :: inactive
